Experiment: AUC in rat at 10 mg/kg, po
Assay type: ADME, organism-based
Set-up: dose 10 mg/kg, route oral
Conditions: plasma
endpoint: AUC (ng·h/mL)
Answers are plain numbers, in ng·h/mL.

Give the measured AUC of Cc1cc(C)cc([C@@H]2CCCN2Cc2ccc(Oc3ccc(C(N)=O)cc3F)cc2)c1 [ATICAPRANT] .
466

---

Molecular target: Mu-type opioid receptor (Homo sapiens, UniProt P35372)
Sequence (P35372 whole entry): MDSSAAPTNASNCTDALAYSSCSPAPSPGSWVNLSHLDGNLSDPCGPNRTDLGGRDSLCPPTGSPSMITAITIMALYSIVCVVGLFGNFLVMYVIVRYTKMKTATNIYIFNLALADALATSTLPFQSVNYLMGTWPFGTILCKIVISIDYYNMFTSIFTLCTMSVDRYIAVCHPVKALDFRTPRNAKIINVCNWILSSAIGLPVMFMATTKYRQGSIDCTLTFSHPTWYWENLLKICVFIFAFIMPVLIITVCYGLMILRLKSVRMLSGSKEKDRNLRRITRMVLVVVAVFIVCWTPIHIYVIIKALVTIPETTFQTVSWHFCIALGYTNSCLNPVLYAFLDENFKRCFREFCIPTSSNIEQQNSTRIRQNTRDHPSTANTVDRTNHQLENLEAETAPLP
Test: Agonist activity at human cloned mu opioid receptor expressed in CHO cells assessed as stimulation of [35S]-GTP[gammaS] binding
Please provide measured EC50 for the entries that follow.

| compound | target system | EC50 |
| --- | --- | --- |
| CC1CN(CCCc2ccccc2)C2C[C@H](N)CC1(c1cccc(O)c1)C2 (stereo partly drawn) | Mu-type opioid receptor (Homo sapiens, UniProt P35372) | 19.5 µM |

Please give EC50 for each item listed below.
1. CO[C@H]1Cc2ccc(O)cc2C(C)(C)[C@@H]1N
2. CC1CN(CCCc2ccccc2)C2C[C@H](NCC3CC3)CC1(c1cccc(O)c1)C2 (stereo partly drawn)

0.234 µM
130 µM

---

Experiment: Half life in rat at 1 mg/kg, iv
Assay type: ADME, organism-based
Design: dose 1 mg/kg, route intravenous
Settings: in vivo
endpoint: half-life (h)
Numbers only, in h.

Give the measured half-life of `Cc1cc(C)cc([C@@H]2CCCN2Cc2ccc(Oc3ccc(C(N)=O)cc3F)cc2)c1` .
1.8

---

Biological target: Sodium-dependent noradrenaline transporter (Homo sapiens)
Sequence (P23975 whole entry): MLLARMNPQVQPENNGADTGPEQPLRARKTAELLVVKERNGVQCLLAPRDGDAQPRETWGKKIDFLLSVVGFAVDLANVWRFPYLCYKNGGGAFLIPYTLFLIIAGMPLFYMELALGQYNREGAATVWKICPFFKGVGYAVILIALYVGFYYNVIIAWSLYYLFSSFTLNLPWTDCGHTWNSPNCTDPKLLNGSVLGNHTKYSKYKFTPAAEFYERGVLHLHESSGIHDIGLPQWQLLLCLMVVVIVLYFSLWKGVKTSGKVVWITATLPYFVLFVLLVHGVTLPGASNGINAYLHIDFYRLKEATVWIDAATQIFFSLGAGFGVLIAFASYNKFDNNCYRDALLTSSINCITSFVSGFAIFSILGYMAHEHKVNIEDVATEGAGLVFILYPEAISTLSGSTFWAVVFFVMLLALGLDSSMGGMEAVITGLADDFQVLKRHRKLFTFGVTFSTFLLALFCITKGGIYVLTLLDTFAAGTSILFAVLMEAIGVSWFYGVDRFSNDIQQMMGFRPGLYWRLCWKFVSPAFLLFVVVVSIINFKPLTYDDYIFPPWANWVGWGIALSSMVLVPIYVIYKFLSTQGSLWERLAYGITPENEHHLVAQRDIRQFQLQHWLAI
pKi: −log10 of the molar value.
endpoint: pKi

Give the measured pKi of `COc1ccc(N2CCN(CCCNC(=O)Cn3c(=O)c4cccn4c4c(C)ccnc43)CC2)cc1` .
> 6.00

---

Assay: Cmax in rat at 10 mg/kg, po
Type: ADME, organism-based
Set-up: dose 10 mg/kg, route oral
Settings: in vivo
endpoint: Cmax (ng/mL)
One number for each entry, in ng/mL.

Give the measured Cmax of `Cc1cc(C)cc([C@@H]2CCCN2Cc2ccc(Oc3ccc(C(N)=O)cc3F)cc2)c1` .
95

---

Test: Antagonist activity at delta opioid receptor in guinea pig caudate assessed as inhibition of SNC-80-stimulated [35S]-GTP[gammaS] binding
Set-up: species or system Cavia porcellus
endpoint: Ki

Give the measured Ki of `CC(C)[C@@H](CN1CC[C@@](C)(c2cccc(O)c2)[C@@H](C)C1)NC(=O)[C@H]1Cc2ccc(O)cc2CN1` .
> 300 nM

---

Please provide measured pKi for the entries that follow.
Molecular target: Muscarinic acetylcholine receptor M4 (Homo sapiens, UniProt P08173)
Sequence (P08173 whole entry): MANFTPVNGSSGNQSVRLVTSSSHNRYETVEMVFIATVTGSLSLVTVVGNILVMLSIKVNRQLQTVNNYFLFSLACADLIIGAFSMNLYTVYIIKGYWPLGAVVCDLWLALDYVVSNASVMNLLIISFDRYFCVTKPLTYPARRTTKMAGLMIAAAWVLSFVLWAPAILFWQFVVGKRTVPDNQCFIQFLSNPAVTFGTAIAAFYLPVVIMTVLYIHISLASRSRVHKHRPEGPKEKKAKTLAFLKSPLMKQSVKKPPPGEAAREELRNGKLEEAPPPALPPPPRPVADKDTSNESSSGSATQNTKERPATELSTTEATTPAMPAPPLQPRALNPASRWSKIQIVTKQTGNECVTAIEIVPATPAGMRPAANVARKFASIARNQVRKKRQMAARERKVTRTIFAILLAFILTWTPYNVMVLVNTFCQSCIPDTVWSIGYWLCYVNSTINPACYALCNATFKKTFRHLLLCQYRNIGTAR
pKi: −log10 of the molar value.

| smiles text | target system | pKi |
| --- | --- | --- |
| Cc1ccc(S(=O)(=O)NCc2ccc(C(=O)NCCN(Cc3ccccc3)C(C)C)cc2)cc1 | Muscarinic acetylcholine receptor M4 (Homo sapiens, UniProt P08173) | > 6.00 |

Okay, next one:
Give the measured pKi of `Cc1ccc(S(=O)(=O)NCc2ccc(C(=O)NCCN(Cc3ccccc3)C(C)(C)C)cc2)cc1` .
> 6.00
